Target: CDK6/Cyclin D1 (Homo sapiens, UniProt Q00534)
Sequence (Q00534 whole entry): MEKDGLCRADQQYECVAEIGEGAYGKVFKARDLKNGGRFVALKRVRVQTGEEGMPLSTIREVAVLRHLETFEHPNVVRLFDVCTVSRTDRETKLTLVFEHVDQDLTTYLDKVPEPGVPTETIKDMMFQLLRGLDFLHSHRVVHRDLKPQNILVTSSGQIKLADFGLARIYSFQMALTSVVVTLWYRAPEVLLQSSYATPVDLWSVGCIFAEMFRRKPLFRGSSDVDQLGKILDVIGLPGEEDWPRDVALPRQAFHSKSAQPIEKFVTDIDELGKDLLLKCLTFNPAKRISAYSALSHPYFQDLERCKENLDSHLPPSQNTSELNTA
Sequence (P24385 whole entry partner): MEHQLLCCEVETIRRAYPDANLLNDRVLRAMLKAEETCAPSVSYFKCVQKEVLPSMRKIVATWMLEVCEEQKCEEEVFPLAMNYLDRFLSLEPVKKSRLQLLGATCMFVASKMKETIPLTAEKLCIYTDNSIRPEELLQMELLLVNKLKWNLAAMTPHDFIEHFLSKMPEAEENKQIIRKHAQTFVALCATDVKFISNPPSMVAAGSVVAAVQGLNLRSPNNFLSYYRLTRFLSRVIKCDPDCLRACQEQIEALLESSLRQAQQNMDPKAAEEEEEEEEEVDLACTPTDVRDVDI
Assay: NanoBRET live-cell target engagement, NanoLuc-CDK6/Cyclin D1 in HEK-293
Type: binding
Settings: CDK6/D1; read-out: IC50 (nM) Replicate 3
resultType: IC50 (nM)
Answers are plain numbers, in nM.

List IC50 for every entry below, keeping the order given.
1. C[C@H]1CC[C@H](n2c3cnccc3c3cnc(Nc4ccc5c(n4)CCN(C(=O)CO)C5)nc32)CC1
2. CCCCOc1c(C(=O)c2c(F)cc(C)cc2F)c[nH]c2nncc1-2

13
152

###

Target: CDK10/Cyclin L2 (Homo sapiens, UniProt Q15131)
Sequence (Q15131 whole entry): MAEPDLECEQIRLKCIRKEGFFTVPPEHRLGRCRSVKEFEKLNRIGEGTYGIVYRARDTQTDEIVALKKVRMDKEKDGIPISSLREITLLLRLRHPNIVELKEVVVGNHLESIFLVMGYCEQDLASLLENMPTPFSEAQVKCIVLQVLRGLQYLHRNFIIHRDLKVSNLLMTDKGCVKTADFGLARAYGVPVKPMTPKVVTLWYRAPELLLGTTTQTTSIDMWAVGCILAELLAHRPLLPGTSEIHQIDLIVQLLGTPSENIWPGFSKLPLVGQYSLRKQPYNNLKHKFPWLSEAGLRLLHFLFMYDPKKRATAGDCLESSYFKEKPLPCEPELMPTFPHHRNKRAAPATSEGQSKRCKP
Assay: NanoBRET live-cell target engagement, CDK10-NanoLuc/Cyclin L2 in HEK-293
Conditions: CDK10/L2 IC50 (nM), independent experiment 1
resultType: IC50 (nM)
Give bare numbers, in nM.

COCCN1CCN(Cc2ccc(-c3n[nH]c4c3C(=O)c3c(NC(=O)NN5CCOCC5)cccc3-4)cc2)CC1: 790

Continue with the compound presented below.
Request the reported IC50 associated with `CN1C/C=C/CCOc2cccc(c2)-c2ccnc(n2)Nc2cccc(c2)C1`
530

###

Target: CDK14/Cyclin Y (Homo sapiens, UniProt O94921)
Sequence (O94921 whole entry, one chain of several): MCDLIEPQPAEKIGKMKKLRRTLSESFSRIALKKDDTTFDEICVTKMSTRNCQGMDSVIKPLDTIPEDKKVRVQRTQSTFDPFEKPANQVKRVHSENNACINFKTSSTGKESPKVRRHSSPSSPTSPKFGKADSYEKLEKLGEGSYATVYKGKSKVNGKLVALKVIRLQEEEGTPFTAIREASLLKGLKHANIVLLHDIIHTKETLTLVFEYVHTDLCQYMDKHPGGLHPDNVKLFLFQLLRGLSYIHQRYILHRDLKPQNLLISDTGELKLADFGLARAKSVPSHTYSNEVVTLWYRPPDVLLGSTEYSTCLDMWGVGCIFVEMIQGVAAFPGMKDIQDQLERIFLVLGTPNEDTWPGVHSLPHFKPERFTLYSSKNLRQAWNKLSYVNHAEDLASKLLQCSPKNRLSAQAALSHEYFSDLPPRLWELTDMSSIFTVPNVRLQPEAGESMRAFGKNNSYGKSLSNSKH
Assay: NanoBRET live-cell target engagement, CDK14-NanoLuc/Cyclin Y in HEK-293
Type: binding
Settings: 10µM; independent experiment 1
resultType: CDK14/Y Inhibition at 10µM (%)
Give bare numbers, in %.

Cc1c(Br)c(Br)c2c3c1nc(N1CCNCC1)n3CCC2.Cl [SEL 120-34A]: 21.7
CN(C)C/C=C/C(=O)Nc1ccc(C(=O)Nc2cccc(Nc3ncc(Cl)c(-c4c[nH]c5ccccc45)n3)c2)cc1 [THZ1]: 6.6
O=C1NC(=NCc2cccs2)S/C1=C\c1ccc2ncccc2c1 [RO-3306]: 3.4

Shifting focus to the compound that follows.
Which CDK14/Y Inhibition at 10µM (%) reading was recorded for the compound O=C1NCCc2[nH]c(-c3ccncc3)cc21 [PHA-767491] ?
16.7

###

Target: CDK18/Cyclin Y (Homo sapiens, UniProt Q07002)
Sequence (Q07002 whole entry): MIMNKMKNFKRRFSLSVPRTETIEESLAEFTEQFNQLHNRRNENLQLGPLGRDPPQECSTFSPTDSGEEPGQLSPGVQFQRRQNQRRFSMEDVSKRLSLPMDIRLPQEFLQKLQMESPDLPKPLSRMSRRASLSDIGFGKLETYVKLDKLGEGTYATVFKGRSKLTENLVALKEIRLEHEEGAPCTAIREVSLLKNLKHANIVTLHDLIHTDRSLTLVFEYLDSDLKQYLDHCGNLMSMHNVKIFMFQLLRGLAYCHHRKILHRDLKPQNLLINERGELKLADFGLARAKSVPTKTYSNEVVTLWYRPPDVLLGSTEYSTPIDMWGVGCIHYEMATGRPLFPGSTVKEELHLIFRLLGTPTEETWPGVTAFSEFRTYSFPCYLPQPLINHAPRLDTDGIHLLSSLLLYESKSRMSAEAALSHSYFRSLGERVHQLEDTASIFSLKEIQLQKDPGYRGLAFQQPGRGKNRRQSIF
Sequence (Q8ND76 whole entry partner): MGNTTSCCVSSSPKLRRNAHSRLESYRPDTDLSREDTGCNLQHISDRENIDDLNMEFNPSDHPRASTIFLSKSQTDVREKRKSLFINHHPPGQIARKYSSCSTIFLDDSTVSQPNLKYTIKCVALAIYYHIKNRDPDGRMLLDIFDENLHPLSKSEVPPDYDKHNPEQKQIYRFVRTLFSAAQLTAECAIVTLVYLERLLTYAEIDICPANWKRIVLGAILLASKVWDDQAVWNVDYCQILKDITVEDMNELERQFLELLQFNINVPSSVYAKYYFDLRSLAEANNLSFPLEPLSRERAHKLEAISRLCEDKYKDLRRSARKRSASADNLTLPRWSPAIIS
Test: NanoBRET live-cell target engagement, CDK18-NanoLuc/Cyclin Y in HEK-293
Assay type: binding
Details: CDK18/Y; 10µM
resultType: Inhibition at 10µM (%) Replicate 2
One number for each entry, in %.

CNC1CCN(C(=O)c2ccc(Nc3ncc(F)c(-c4cnc(C)n4C(C)C)n3)cc2)C1 (stereo not shown): 101.0
CC(C)c1cnn2c(NCc3ccccc3)cc(N[C@@H](CO)[C@H](O)CO)nc12: 90.8
CCC(CO)Nc1nc(Nc2cccc(-c3ccccn3)c2)c2ncn(C(C)C)c2n1.Cl.O [(R) - DRF053]: 40.9

Turning now to a further record.
Give the measured Inhibition at 10µM (%) Replicate 2 of `O=C(Nc1c[nH]nc1-c1ccccn1)c1nn(C2CCNCC2)cc1Cl` .
10.0

###

Biological target: CDK12/Cyclin K (Homo sapiens, UniProt Q9NYV4)
Sequence (Q9NYV4 1-1481 isoform Q9NYV4-2): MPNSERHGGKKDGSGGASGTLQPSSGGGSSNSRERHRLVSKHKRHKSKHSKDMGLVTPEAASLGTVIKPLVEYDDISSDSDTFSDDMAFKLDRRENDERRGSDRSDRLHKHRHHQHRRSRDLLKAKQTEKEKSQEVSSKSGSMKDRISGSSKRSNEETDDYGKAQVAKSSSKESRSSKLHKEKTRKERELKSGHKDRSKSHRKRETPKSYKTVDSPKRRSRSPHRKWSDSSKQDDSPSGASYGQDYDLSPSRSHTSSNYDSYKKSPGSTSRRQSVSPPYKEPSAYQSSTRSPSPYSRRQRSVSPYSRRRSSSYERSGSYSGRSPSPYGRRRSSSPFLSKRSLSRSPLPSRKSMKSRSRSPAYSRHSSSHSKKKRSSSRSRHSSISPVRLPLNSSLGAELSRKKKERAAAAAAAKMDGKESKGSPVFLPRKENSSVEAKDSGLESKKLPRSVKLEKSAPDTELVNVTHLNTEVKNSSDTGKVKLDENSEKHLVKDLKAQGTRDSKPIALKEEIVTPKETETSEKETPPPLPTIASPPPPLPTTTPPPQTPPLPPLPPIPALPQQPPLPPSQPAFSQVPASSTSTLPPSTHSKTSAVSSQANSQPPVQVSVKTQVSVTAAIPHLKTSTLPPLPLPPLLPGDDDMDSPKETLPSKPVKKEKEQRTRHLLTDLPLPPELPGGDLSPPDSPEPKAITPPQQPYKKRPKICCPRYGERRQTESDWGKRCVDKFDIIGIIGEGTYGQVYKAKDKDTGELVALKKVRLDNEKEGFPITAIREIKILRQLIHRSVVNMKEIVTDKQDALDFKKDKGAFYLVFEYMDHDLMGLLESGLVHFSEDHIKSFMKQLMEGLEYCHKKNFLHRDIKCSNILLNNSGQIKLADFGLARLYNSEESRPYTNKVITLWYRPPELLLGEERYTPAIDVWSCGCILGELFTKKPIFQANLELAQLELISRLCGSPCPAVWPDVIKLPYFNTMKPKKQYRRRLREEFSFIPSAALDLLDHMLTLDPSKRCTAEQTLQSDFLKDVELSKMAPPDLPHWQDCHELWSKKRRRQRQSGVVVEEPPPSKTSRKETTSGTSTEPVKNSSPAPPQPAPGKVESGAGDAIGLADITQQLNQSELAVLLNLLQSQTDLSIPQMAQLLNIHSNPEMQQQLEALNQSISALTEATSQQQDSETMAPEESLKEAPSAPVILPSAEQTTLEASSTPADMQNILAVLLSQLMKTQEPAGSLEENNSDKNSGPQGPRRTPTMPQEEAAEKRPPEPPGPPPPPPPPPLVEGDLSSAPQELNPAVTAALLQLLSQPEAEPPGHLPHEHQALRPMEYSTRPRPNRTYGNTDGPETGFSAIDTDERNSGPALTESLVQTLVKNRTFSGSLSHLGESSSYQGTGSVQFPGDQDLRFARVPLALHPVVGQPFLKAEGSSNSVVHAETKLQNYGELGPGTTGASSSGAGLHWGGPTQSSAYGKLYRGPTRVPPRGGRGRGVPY
Sequence (O75909 whole entry partner): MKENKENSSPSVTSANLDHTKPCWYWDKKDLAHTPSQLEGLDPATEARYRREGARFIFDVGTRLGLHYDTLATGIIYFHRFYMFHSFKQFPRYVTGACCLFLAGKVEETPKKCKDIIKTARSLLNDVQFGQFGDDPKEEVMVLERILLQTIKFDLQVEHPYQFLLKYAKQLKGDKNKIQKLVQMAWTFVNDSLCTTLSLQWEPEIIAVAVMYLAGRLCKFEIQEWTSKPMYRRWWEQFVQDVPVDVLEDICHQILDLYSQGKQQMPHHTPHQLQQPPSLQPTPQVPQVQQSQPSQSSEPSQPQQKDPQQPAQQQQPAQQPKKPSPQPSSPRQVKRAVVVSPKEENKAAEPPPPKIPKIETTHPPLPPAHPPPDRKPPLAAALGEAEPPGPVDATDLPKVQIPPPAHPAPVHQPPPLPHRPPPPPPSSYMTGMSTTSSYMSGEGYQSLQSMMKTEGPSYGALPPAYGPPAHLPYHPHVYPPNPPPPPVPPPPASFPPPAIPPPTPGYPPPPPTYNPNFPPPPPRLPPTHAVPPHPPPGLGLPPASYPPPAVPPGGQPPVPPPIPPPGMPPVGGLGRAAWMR
Assay: NanoBRET live-cell target engagement, CDK12-NanoLuc/Cyclin K in HEK-293
Assay type: binding
Conditions: live HEK-293; read-out: CDK12 engagement potency
resultType: IC50

Entry under review: `CN(C)C/C=C/C(=O)Nc1ccc(C(=O)N2CCC[C@@H](Nc3ncc(Cl)c(-c4c[nH]c5ccccc45)n3)C2)cc1` . Reported IC50?
< 1000 nM
